Protein target, amino acids: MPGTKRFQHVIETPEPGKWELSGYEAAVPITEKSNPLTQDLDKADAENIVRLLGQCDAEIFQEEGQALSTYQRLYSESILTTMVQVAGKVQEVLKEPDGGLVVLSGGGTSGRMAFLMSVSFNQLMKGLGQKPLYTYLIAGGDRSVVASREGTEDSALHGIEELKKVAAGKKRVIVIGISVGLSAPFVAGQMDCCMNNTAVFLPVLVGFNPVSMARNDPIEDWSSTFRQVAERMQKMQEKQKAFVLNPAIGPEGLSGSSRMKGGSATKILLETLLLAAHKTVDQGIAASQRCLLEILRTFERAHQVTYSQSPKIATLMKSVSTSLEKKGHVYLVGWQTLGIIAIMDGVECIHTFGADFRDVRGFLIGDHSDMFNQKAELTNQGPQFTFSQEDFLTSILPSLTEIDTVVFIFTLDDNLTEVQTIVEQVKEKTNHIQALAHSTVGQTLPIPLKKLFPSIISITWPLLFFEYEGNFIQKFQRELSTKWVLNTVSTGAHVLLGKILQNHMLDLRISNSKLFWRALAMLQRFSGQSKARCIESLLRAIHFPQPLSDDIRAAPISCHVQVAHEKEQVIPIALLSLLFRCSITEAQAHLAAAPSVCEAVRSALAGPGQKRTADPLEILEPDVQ
pIC50: −log10 of the molar value.
just bin them by pIC50: LOW (below 6), MID (6 to below 7), HIGH (7 or more)

Below, 6 molecules whose answers are already recorded.
| molecule | cat |
| --- | --- |
| CC(O)(c1ccc(N2CCN(S(=O)(=O)c3cccs3)C[C@@H]2CN2C(=O)NC(=O)C23CCC3)cc1)C(F)(F)F (mixture of isomers) | MID |
| CCC(C)S(=O)(=O)NC[C@H]1CN(S(=O)(=O)c2cccs2)CCN1c1ccc(C(C)(O)C(F)(F)F)cc1 (stereo partly drawn) | MID |
| O=S(=O)(c1ccccc1)c1ccc(-c2ncc(C(O)(C(F)(F)F)C(F)(F)F)cn2)cc1 | MID |
| CC(C)CS(=O)(=O)N(C[C@H]1CN(S(=O)(=O)c2cccs2)CCN1c1ccc(C(C)(O)C(F)(F)F)cc1)c1cccnc1 (mixture of isomers) | HIGH |
| CC#CC1CN(S(=O)(=O)c2ccc(N)nc2)CCN1c1ncc(C(C)(O)C(F)(F)F)cn1 (single isomer, unassigned) [Example 251 First Eluting Peak from Set Two] | LOW |
| Nc1ccc(S(=O)(=O)N2CCN(c3ncc(C(O)(C(F)(F)F)C(F)(F)F)cn3)C(C#CC3CC3)C2)cn1 (stereo not drawn) | MID |

Task: Looking at CC#CC1CN(S(=O)(=O)c2ccc(N)nc2)CCN1c1ncc(C(C)(O)C(F)(F)F)cn1 (single isomer, unassigned) [Example 251 Second Eluting Peak from Set Two] , which class would you pick?
Output: LOW

Task: Looking at CC#CC1CN(S(=O)(=O)c2ccc(N)nc2)CCN1c1ncc(C(C)(O)C(F)(F)F)cn1 (single isomer, unassigned) [Example 251 Second Eluting Peak from Set One] , which class would you pick?
Output: HIGH

Task: Looking at CC#CC1CN(S(=O)(=O)c2ccc(N)nc2)CCN1c1ncc(C(C)(O)C(F)(F)F)cn1 (mixture of isomers) [Example 251] , which class would you pick?
Output: HIGH

Task: Looking at CC#CC1CN(S(=O)(=O)c2ccc(N)nc2)CCN1c1ncc(C(C)(O)C(F)(F)F)cn1 (single isomer, unassigned) [Example 251 First Eluting Peak from Set One] , which class would you pick?
Output: HIGH

These measurements were taken from patent US8431563B2.
